Target: BTK (Homo sapiens)
Sequence (Q06187 whole entry): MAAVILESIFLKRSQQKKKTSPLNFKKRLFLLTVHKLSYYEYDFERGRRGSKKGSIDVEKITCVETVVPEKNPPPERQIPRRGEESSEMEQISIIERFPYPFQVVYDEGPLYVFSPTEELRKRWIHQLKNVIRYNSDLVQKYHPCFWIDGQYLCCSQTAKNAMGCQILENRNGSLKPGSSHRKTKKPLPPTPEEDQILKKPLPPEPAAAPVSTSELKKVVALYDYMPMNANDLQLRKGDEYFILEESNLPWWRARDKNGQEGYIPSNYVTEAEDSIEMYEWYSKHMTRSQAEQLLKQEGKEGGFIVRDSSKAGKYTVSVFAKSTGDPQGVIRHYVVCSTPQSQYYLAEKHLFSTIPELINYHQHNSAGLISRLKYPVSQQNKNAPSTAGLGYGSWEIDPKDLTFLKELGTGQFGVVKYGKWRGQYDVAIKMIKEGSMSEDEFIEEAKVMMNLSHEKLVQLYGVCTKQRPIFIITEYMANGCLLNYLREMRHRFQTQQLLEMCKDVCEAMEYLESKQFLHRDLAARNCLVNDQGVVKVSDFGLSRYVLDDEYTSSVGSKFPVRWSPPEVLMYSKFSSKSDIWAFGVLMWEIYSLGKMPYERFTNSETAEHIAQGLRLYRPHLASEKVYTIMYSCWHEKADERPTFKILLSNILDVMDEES
Assay: BTK cell degradation in TMD-8 cells, HTRF assay
Format: cell-based
Set-up: endogenous in cells; host or cells: TMD-8 cells
Details: 6 h treatment, IC50 (DC50) of BTK degradation
Procedure: TMD-8 cells were treated with compounds diluted in 0.2% DMSO, dilution was done according to the following protocol: (1) making 500× stock solution in DMSO from 1 mM by 6-fold dilution, total 8 doses were included; (2) making 2× solution in cell culture medium by transferring 0.5 μl 500× stock solution into 125 μl medium; (3) adding 15 μl of 2× solution to cells for incubation of 6 h. […]
test_readout: DC50 (nM)

# compound, tested_target, DC50 / nM
rows = [
    ("Cc1cccc(NC(=O)c2ccc(-c3nn4c(c3C(N)=O)Nc3ccc(N5CCN(CCc6cc(F)c(C7CCC(=O)NC7=O)c(F)c6)CC5)cc3CC4)c(F)c2C)n1 (centres unmarked)", "BTK (Homo sapiens)", 1.7),
    ("Cc1cccc(NC(=O)c2ccc(-c3nn4c(c3C(N)=O)Nc3ccc(N5CCN(CC6CCN(c7ccc(N8CCC(=O)NC8=O)cc7)CC6)CC5)cc3CC4)nc2C)n1", "BTK (Homo sapiens)", 4.89),
]

[A] Cc1cncc(NC(=O)c2ccc(-c3nn4c(c3C(N)=O)Nc3ccc(N5CCN(CC6CCN(c7ccc(N8CCC(=O)NC8=O)cc7)CC6)CC5)cc3CC4)c(F)c2C)n1
[B] COc1ccc(C)cc1C(=O)NCc1ccc(-c2nn3c(c2C(N)=O)Nc2ccc(N4CCN(CC5CCN(c6ccc(N7CCC(=O)NC7=O)cc6)CC5)CC4)cc2CC3)cc1C
[C] NC(=O)c1c(-c2cc(F)c(C(=O)Nc3cc(C(F)(F)F)ccn3)c(F)c2)nn2c1Nc1ccc(N3CCN(CC4CCN(c5ccc(N6CCC(=O)NC6=O)cc5)CC4)CC3)cc1CC2
Query :: Rank items: key DC50, increasing. Use the labels to give the requested order.
Result :: C, A, B
(C: 1.61 nM, A: 5.69 nM, B: 8.52 nM)
